Molecular target: T1, mouse TGF-βRII on MC3T3-E1 cells (mouse osteoblasts) (mouse, UniProt Q62312 24-567); also: test concentration or dose not given here
T1 sequence (looked up): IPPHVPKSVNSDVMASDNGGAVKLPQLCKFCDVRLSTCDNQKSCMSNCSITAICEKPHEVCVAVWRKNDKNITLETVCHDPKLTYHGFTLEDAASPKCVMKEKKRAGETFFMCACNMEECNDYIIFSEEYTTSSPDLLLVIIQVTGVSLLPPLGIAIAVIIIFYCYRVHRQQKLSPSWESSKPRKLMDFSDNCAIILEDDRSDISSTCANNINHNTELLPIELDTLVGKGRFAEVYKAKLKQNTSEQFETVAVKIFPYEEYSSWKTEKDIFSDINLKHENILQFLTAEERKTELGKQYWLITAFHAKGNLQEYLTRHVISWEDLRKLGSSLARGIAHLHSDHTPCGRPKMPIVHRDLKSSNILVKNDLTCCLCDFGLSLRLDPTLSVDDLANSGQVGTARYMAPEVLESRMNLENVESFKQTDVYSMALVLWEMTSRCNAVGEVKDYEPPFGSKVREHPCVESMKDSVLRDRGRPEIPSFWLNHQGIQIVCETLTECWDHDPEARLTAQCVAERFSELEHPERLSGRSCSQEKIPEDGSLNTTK
Test: cell-based or functional assay
Here, each record is paired with measured max % inhibition, Average (Mouse 3T3 cell assay, method m1) data.
Quantity kind: max % inhibition, Average (Mouse 3T3 cell assay, method m1)

>  <Binder>
DOM23m-71 (VHH, not shown: small tags and cut ends) VHH: EVQLLESGGGLVQPGGSLRLSCAASGFTFMDYRMYWVRQAPGKGLEWVSGIDPTGLRTYYADSVKGRFTISRDNSKNTLYLQMNSLRAEDTAVYYCAKIKWGEMGSYKTFDYWGQGTLVTVSS

>  <Value observed>
44.9%

$$$$
>  <Binder>
DOM23m-4 (VHH, not shown: small tags and cut ends) VHH: EVQLLESGGGLVQPGGSLRLSCAASGFTFTTYGMGWVRQAPGKGLEWVSWIEKTGNKTYYADSVKGRFTISRDNSKNTLYLQMNSLRAEDTAVYYCAKAGRHIKVRSRDFDYWGQGTLVTVSS

>  <Value observed>
73.3%

$$$$
>  <Binder>
DOM23m-29 (VHH, not shown: small tags and cut ends) VHH: EVQLLESGGGLVQPGGSLRLSCAASGFTFKRYSMGWVRQAPGKGLEWVSVINDLGSLTYYADSVKGRFTISRDNSKNTLYLQMNSLRAEDTAVYYCAKGNISMVRPGSWFDYWGQGTLVTVSS

>  <Value observed>
54.2%

$$$$
>  <Binder>
DOM23m-32 (VHH, not shown: small tags and cut ends) VHH: EVQLLESGGGLVQPGGSLRLSCAASGFTFFEYPMGWVRQAPGKGLEWVSVISGDGQRTYYADSVKGRFTISRDNSKNTLYLQMNSLRAEDTAVYYCAKSHTGTVRHLETFDYWGQGTLVTVSS

>  <Value observed>
39.7%

$$$$
